# procedure_summary: AUC (0 to t) in Balb/c mouse at 5 mg/kg, po by LC-MS/MS analysis
# Assay type: ADME, organism-based
# assay_context: Balb/c, in vivo
observation_type: AUC(0-t)
Reply with the number, then its unit.

Query string: Which AUC(0-t) is listed for "C[C@]1(COc2ccc(S(=O)(=O)N3CCOCC3)cc2)Cn2cc([N+](=O)[O-])nc2O1" ?
Result string: 879 ng·h/mL

====

# procedure_summary: Half life in Balb/c mouse at 5 mg/kg, po by LC-MS/MS analysis
# Format: ADME, organism-based
# assay_context: Balb/c, in vivo
observation_type: half-life (h)
Field format: number, assumed h, no unit text.

Query string: Which half-life is listed for "C[C@]1(COc2ccc(S(=O)(=O)N3CCOCC3)cc2)Cn2cc([N+](=O)[O-])nc2O1" ?
Result string: 1.99

Numbers sourced from ChEMBL document CHEMBL3739292.
